molecular target: cannabinoid CB1 receptor (CB1R) (Homo sapiens); construct: gene CNR1; SNAP-tagged CB1R in HEK-293T cells; experiment: HTRF (Tag-lite) competition binding against fluorescent CELT-335; assay type: cell-based
Sequence (P21554 whole entry): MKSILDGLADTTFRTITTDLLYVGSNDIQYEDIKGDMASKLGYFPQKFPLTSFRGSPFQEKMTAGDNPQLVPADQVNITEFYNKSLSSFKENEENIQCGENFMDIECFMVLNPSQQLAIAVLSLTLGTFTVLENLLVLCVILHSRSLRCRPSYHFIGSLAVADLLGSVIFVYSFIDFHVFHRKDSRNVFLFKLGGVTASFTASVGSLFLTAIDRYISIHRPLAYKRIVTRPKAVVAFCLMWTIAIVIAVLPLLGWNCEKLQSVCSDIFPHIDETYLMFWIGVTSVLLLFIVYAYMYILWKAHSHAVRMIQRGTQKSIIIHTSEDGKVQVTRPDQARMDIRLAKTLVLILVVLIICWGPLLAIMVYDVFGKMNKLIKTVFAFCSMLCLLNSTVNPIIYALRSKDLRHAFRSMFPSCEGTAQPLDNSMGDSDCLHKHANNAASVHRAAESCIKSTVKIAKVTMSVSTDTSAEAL
value.kind: Ki (nM)
Please state the figure in nM; there is no need to write the unit.

*Q* // lookup Ki | system=cannabinoid CB1 receptor (CB1R) (Homo sapiens) | key= "CCCCC/C=C\C/C=C\C/C=C\C/C=C\CCCC(=O)NCCCl"
*A* 4.8
